Test system: THP-1
assay.name: cells
cond: Homo sapiens, THP-1, 48 h, read-out: IC50 (μM) of PRIMA-1 single agent administration

input.smiles	IC50 [µM]
O=C1C2CCN(CC2)C1(CO)CO	6
